System: Escherichia coli
procedure-details: Antimicrobial activity against Escherichia coli […] after 24 hrs by microbroth dilution method
Assay type: functional
metric: MIC (µg/mL)
# unit: µg/mL | format: bare number

* Fc1ccc(CN(CCBr)CCn2nnc3ccccc32)c(F)c1 | 128

So for `COc1ccc2cc3[n+](cc2c1OCCN(CCn1ccnc1)Cc1ccc(F)cc1F)CCc1cc2c(cc1-3)OCO2.[Cl-]` , the logged MIC turned out to be 32

// sample `COc1ccc2cc3[n+](cc2c1OCCN(CCn1nnc2ccccc21)Cc1ccc(F)cc1F)CCc1cc2c(cc1-3)OCO2.[Cl-]` , its MIC was 128

What the record says about `COc1ccc2cc3[n+](cc2c1OCCN(CCSc1nc2ccccc2[nH]1)Cc1ccc(F)cc1F)CCc1cc2c(cc1-3)OCO2.[Cl-]` : MIC is 32

The recorded MIC for `Cc1cc2ncn(CCN(CCBr)Cc3ccc(F)cc3F)c2cc1C` is 128

Documented MIC of `COc1ccc2cc3[n+](cc2c1OCCN(CCn1cnc2cc(C)c(C)cc21)Cc1ccc(F)cc1F)CCc1cc2c(cc1-3)OCO2.[Cl-]` : 32

// MIC lookup, compound = `COc1ccc2cc3[n+](cc2c1OCCN(CCn1cnc2ccccc21)Cc1ccc(F)cc1F)CCc1cc2c(cc1-3)OCO2.[Cl-]` , result: 32

For reference, reported MIC for `Fc1ccc(CN(CCBr)CCn2ccnc2)c(F)c1` stands at 128

# compound `Fc1ccc(CN(CCBr)CCn2cnc3ccccc32)c(F)c1` ; its MIC = 512

---

System: Shigella dysenteriae
procedure-details: Antimicrobial activity against Shigella dysenteriae ATCC 51252 after 24 hrs by microbroth dilution method
Format: functional
experimental-setup: ATCC 51252, 24 h
# MIC values compiled below
Entry rule: numbers only, all in µg/mL.

The following compounds have reported results that may help.
* Fc1ccc(CN(CCBr)CCn2ccnc2)c(F)c1 | 128
* COc1ccc2cc3[n+](cc2c1OCCN(CCSc1nc2ccccc2[nH]1)Cc1ccc(F)cc1F)CCc1cc2c(cc1-3)OCO2.[Cl-] | 128
* Fc1ccc(CN(CCBr)CCn2cnc3ccccc32)c(F)c1 | 64

Lab note: next compound to report on.
MIC reported for this compound `COc1ccc2cc3[n+](cc2c1OCCN(CCn1ccnc1)Cc1ccc(F)cc1F)CCc1cc2c(cc1-3)OCO2.[Cl-]` : 16

---

Listed next: entries and their corresponding MIC.
Test system: Micrococcus luteus
procedure-details: Antimicrobial activity against Micrococcus luteus ATCC 4698 after 24 hrs by microbroth dilution method
Format: functional
experimental-setup: NCTC 2665, 24 h
Give a bare numeral; the unit µg/mL is implied.

* Fc1cccc(CN(CCBr)CCn2cncn2)c1 | 64

The compound listed as `COc1ccc2cc3[n+](cc2c1OCCN(CCn1cncn1)Cc1ccc(F)cc1F)CCc1cc2c(cc1-3)OCO2.[Cl-]` shows MIC equal to 8

Recorded MIC (compound `COc1ccc2cc3[n+](cc2c1OCCN(CCn1cncn1)Cc1ccccc1F)CCc1cc2c(cc1-3)OCO2.[Cl-]` ): 8

The compound `COc1ccc2cc3[n+](cc2c1OCCN(CCn1cncn1)Cc1cccc(Cl)c1)CCc1cc2c(cc1-3)OCO2.[Cl-]` showed MIC equal to 32

Query `Clc1cccc(CN(CCBr)CCn2cncn2)c1` yields MIC of 64

Memo: `COc1ccc2cc3[n+](cc2c1OCCN(CCn1cncn1)Cc1ccccc1Cl)CCc1cc2c(cc1-3)OCO2.[Cl-]` , reported MIC: 32

---

Reported MIC values follow for various compounds
System: Micrococcus luteus
procedure-details: Antimicrobial activity against Micrococcus luteus ATCC 4698 after 24 hrs by microbroth dilution method
Assay type: functional
experimental-setup: NCTC 2665, 24 h

Guide cases for MIC, answers given:
• Fc1ccc(CN(CCBr)CCn2cnc3ccccc32)c(F)c1 = 256 µg/mL
• Fc1ccc(CN(CCBr)CCSc2nc3ccccc3[nH]2)c(F)c1 = > 512 µg/mL
• Clc1ccc(CN(CCBr)CCn2cncn2)cc1Cl = 32 µg/mL

Consider `Fc1ccccc1CN(CCBr)CCn1cncn1` . Its measured MIC is 64 µg/mL

Record `Cc1cc2ncn(CCN(CCBr)Cc3ccc(F)cc3F)c2cc1C` , field MIC: 64 µg/mL

The compound listed as `Clc1ccccc1CN(CCBr)CCn1cncn1` shows MIC equal to 64 µg/mL

Record `Clc1ccc(CN(CCBr)CCn2cncn2)c(Cl)c1` , field MIC: 32 µg/mL

Entry `COc1ccc2cc3[n+](cc2c1OCCN(CCn1cncn1)Cc1ccc(Cl)c(Cl)c1)CCc1cc2c(cc1-3)OCO2.[Cl-]` ; MIC = 16 µg/mL

Data point: `COc1ccc2cc3[n+](cc2c1OCCN(CCn1cncn1)Cc1ccc(Cl)cc1Cl)CCc1cc2c(cc1-3)OCO2.[Cl-]` ; MIC = 16 µg/mL

Per the record, COc1ccc2cc3[n+](cc2c1OC)CCc1cc2c(cc1-3)OCO2 [BERBERINE] has MIC of > 512 µg/mL

The compound listed as O=C(N[C@H](CO)[C@H](O)c1ccc([N+](=O)[O-])cc1)C(Cl)Cl [CHLORAMPHENICOL] shows MIC equal to 8 µg/mL

In plain terms, `COc1ccc2cc3[n+](cc2c1OCCN(CCn1cncn1)Cc1cccc(F)c1)CCc1cc2c(cc1-3)OCO2.[Cl-]` has a documented MIC of 16 µg/mL

Lab note: `COc1ccc2cc3[n+](cc2c1OCCN(CCn1ccnc1)Cc1ccc(F)cc1F)CCc1cc2c(cc1-3)OCO2.[Cl-]` gave MIC of 32 µg/mL

Input `Fc1ccc(CN(CCBr)CCn2cncn2)c(F)c1` . Output MIC: 32 µg/mL

Entry `COc1ccc2cc3[n+](cc2c1OCCN(CCn1nnc2ccccc21)Cc1ccc(F)cc1F)CCc1cc2c(cc1-3)OCO2.[Cl-]` ; MIC = 128 µg/mL

// field: MIC; key: `Clc1ccc(CN(CCBr)CCn2cncn2)cc1` ; value = 512 µg/mL

// MIC value for CCn1cc(C(=O)O)c(=O)c2cc(F)c(N3CCNCC3)cc21 [NORFLOXACIN] : 2 µg/mL

Documented MIC of `Fc1ccc(CN(CCBr)CCn2nnc3ccccc32)c(F)c1` : 256 µg/mL

Sure, the documented MIC for `COc1ccc2cc3[n+](cc2c1OCCN(CCSc1nc2ccccc2[nH]1)Cc1ccc(F)cc1F)CCc1cc2c(cc1-3)OCO2.[Cl-]` is 128 µg/mL

Notebook: `Fc1ccc(CN(CCBr)CCn2ccnc2)c(F)c1` , MIC read as 64 µg/mL

---

System: Staphylococcus aureus
procedure-details: Antimicrobial activity against methicillin-resistant Staphylococcus aureus N315 after 24 hrs by microbroth dilution method
Assay type: functional
experimental-setup: N315, 24 h
metric: MIC

* Fc1ccc(CN(CCBr)CCn2cnc3ccccc32)c(F)c1 | 256 µg/mL
* COc1ccc2cc3[n+](cc2c1OCCN(CCn1cnc2ccccc21)Cc1ccc(F)cc1F)CCc1cc2c(cc1-3)OCO2.[Cl-] | 32 µg/mL
* Cc1cc2ncn(CCN(CCBr)Cc3ccc(F)cc3F)c2cc1C | 128 µg/mL
* COc1ccc2cc3[n+](cc2c1OCCN(CCn1nnc2ccccc21)Cc1ccc(F)cc1F)CCc1cc2c(cc1-3)OCO2.[Cl-] | 64 µg/mL
* COc1ccc2cc3[n+](cc2c1OCCN(CCSc1nc2ccccc2[nH]1)Cc1ccc(F)cc1F)CCc1cc2c(cc1-3)OCO2.[Cl-] | 64 µg/mL
* Fc1ccc(CN(CCBr)CCSc2nc3ccccc3[nH]2)c(F)c1 | > 512 µg/mL
* Fc1ccc(CN(CCBr)CCn2nnc3ccccc32)c(F)c1 | 128 µg/mL
* COc1ccc2cc3[n+](cc2c1OCCN(CCn1ccnc1)Cc1ccc(F)cc1F)CCc1cc2c(cc1-3)OCO2.[Cl-] | 16 µg/mL

Record `Fc1ccc(CN(CCBr)CCn2ccnc2)c(F)c1` has Staphylococcus aureus MIC equal to 64 µg/mL

The reported Staphylococcus aureus MIC of `COc1ccc2cc3[n+](cc2c1OCCN(CCn1cnc2cc(C)c(C)cc21)Cc1ccc(F)cc1F)CCc1cc2c(cc1-3)OCO2.[Cl-]` is 32 µg/mL

---

Tested on: Shigella dysenteriae
procedure-details: Antimicrobial activity against Shigella dysenteriae ATCC 51252 after 24 hrs by microbroth dilution method
Format: functional
experimental-setup: ATCC 51252, 24 h
Overview of reported MIC across a group of compounds:
Returns: string containing the numeric result and its unit.

* Fc1ccc(CN(CCBr)CCn2nnc3ccccc32)c(F)c1 | 64 µg/mL
* COc1ccc2cc3[n+](cc2c1OCCN(CCn1nnc2ccccc21)Cc1ccc(F)cc1F)CCc1cc2c(cc1-3)OCO2.[Cl-] | 32 µg/mL
* COc1ccc2cc3[n+](cc2c1OCCN(CCn1cnc2cc(C)c(C)cc21)Cc1ccc(F)cc1F)CCc1cc2c(cc1-3)OCO2.[Cl-] | 4 µg/mL
* Cc1cc2ncn(CCN(CCBr)Cc3ccc(F)cc3F)c2cc1C | 16 µg/mL

The measured MIC associated with `COc1ccc2cc3[n+](cc2c1OCCN(CCn1cnc2ccccc21)Cc1ccc(F)cc1F)CCc1cc2c(cc1-3)OCO2.[Cl-]` reads 8 µg/mL
